Ref: paper PMC4965013

Test system: P. falciparum 3D7 trophozoites
Test: Metabolomic fingerprint profiling LC-MS
Format: cell-based, Plasmodium falciparum
Conditions: metabolite UTP; S2 Table Metabolomics, change in metabolite level after compound treatment
Recorded UTP for the following compounds
Please state the value as a number alone, without comment.

# example entries with known answers
compound="CCCCCC(=O)N1c2ccccc2N=C2CC(c3ccc(OC)c(OC)c3)CC(O)=C2C1c1ccc(C(F)(F)F)cc1 (centres unmarked)" measured_endpoint=UTP readout_number=-0.1073
compound="CSC1=NC(=Nc2c(C)cccc2C)C2(CCC(C(C)(C)C)CC2)N1c1ccc(Cl)cc1 (centres unmarked)" measured_endpoint=UTP readout_number=-0.6788
compound=CCCc1c(CC)c(=N)c2ccccc2n1C measured_endpoint=UTP readout_number=0.4819
compound=CCOc1ccc(-c2nonc2NC(=O)c2cccc(C)c2)cc1OCC measured_endpoint=UTP readout_number=-1.276

// returns UTP for CCOC(=O)c1c(C)n(-c2ccc(Cl)cc2)c2ccc(OC(=O)C=Cc3ccccc3)cc12 with P. falciparum 3D7 trophozoites; value = 0.206

----------
System: P. falciparum 3D7 trophozoites
Assay: Metabolomic fingerprint profiling LC-MS
Format: cell-based, Plasmodium falciparum
Conditions: metabolite NAD+, S2 Table Metabolomics
measured.endpoint: NAD+
Please state the value as a number alone, without comment.

# example entries with known answers
compound="CCOC(=O)C1=C(c2ccccc2)N=c2sc(=Cc3cc(C)n(-c4ccc(F)cc4)c3C)c(=O)n2C1c1cccc(OC)c1OC (stereo not drawn)" measured_endpoint=NAD+ readout_number=0.04978
compound=Cc1cc(C)c2c(c1)OCN(Cc1ccccc1Cl)C2 measured_endpoint=NAD+ readout_number=-0.187
compound=COc1ccc(-c2nc(NC(=O)CS(=O)(=O)c3ccc(F)cc3)sc2C)cc1 measured_endpoint=NAD+ readout_number=-0.2604

Reported NAD+ ( COc1ccc(-c2cc3c(SCC(=O)Nc4cc(C(F)(F)F)ccc4Cl)nccn3n2)cc1 ) = -0.01439

Reported NAD+ ( COc1ccccc1CNC(=O)CCn1c(=O)[nH]c2ccccc2c1=O ) = 0.08579

Reported NAD+ ( CCOc1cc2c(cc1OCC)C(c1cc(OC)c(O)cc1Cl)NCC2 (stereo not drawn) ) = 0.03875

Reported NAD+ ( Cc1cc(Nc2ccc(C)c(Cl)c2)n2nc(C(F)(F)F)nc2n1 ) = -0.1

Reported NAD+ ( CC(C)(C)c1ccc(O)c(CNC2CCCCC2)c1 ) = 1.206

Reported NAD+ ( COc1ccc(C(=O)Nc2nonc2-c2ccc(OC)c(OC)c2)cc1Cl ) = -0.6365

----------
System: P. falciparum 3D7 trophozoites
Assay: Metabolomic fingerprint profiling LC-MS
Format: cell-based, Plasmodium falciparum
Settings: metabolite level change after treatment
Class (required): determined from IMP; valid ranges are 0: < -0.1; 1: ≥ -0.1 and < 0.06; 2: ≥ 0.06

Consider the worked cases shown below.
compound="CN(C)CCCNc1c2ccccc2nc2ccccc12 [MMV000448]" target="P. falciparum 3D7 trophozoites" discrete_label=0
compound="COc1ccccc1CNC(=O)CCn1c(=O)[nH]c2ccsc2c1=O [MMV019066]" target="P. falciparum 3D7 trophozoites" discrete_label=2
compound="CSC1=NC(=Nc2c(C)cccc2C)C2(CCC(C(C)(C)C)CC2)N1c1ccc(Cl)cc1 (stereo not shown) [MMV666596]" target="P. falciparum 3D7 trophozoites" discrete_label=1

Which class is correct for the following compound? CCN(CC)CCNc1ncnc2c1[nH]c1ccc(Cl)cc12 [MMV396703]
2

Which class is correct for the following compound? COc1ccc(Br)cc1C1Nc2ccc3ccccc3c2C2=C1C(=O)CC(c1ccccc1)C2 (stereo not shown) [MMV020885]
1

Which class is correct for the following compound? COc1ccccc1N=C1C(=O)c2ccccc2C(O)=C1N1CCCCC1 [MMV085203]
2

Which class is correct for the following compound? CN(C)c1ccc(C(O)(c2ccc(N(C)C)cc2)c2ccc(N(C)C)cc2)cc1 [MMV665941]
0

Which class is correct for the following compound? CCC(c1ccccc1)c1nn2c(-c3cccs3)nnc2s1 (stereo not shown) [MMV665876]
2

Which class is correct for the following compound? Cc1cccc(Nc2nc(N)c3ccccc3n2)c1 [MMV019110]
0

Which class is correct for the following compound? CCOC(=O)c1cnc2c(C)cc(C)cc2c1Nc1ccc(OC)c(OC)c1 [MMV008294]
0
